- Assay Procedure: yeast display, Sf9 membrane polyspecificity reagent, FACS + sequencing; frameworks hold sequencing errors

[
  {
    "Primary Sequence": "QVQLVESGGGLVQAGGSLLLSCAASGSTSQPYAMGWYRQAPGKERELVASITNGGITYYADSVKGRFTISRDNAKNTVYLQLNSLKPEVTAVYYCNADNVFEGYDRRSARACYRYYYWGQGTQVTVSS",
    "polyreactivity (PSR sort gate)": "low polyreactivity"
  },
  {
    "Primary Sequence": "QVQLVESGGGLVQAGGSLRLSCAPSGRIFYGYAMGWYRQAPGKEREFVARINVSGTSTFYADSVKGRFTISRDNAKNTVYLQMNSLKPEDTAVYYCAARGLPSNYYYYVHGYIMDYWGQGTHVTVSS",
    "polyreactivity (PSR sort gate)": "low polyreactivity"
  },
  {
    "Primary Sequence": "QVQLVESGGGLVQAGGSLRLSCAASGAIFSWNAMGWYRQAPGKERELVATITWNGGRTYYADSVKGRFTISRDNAKKTVYLQMNSLKPEATAVYYCAARNTQPASYGYGYWGQGTQVTVSS",
    "polyreactivity (PSR sort gate)": "high polyreactivity"
  },
  {
    "Primary Sequence": "QVQLVESGGGLVQAGGSLRLSCAASGNNIVINAMGWYRPAPGKERELVAAINWTGGNTYYADSVKGRFTISRDNAKNTVYLQMNSLKPEDSAVYYCAADRRWFVWGLGYWGQGTQVTVSS",
    "polyreactivity (PSR sort gate)": "low polyreactivity"
  },
  {
    "Primary Sequence": "QVQLVESGGGLVQAGGSLRLSCAASGRIFGIYAMGWYRHAPGKERELVATITWSGGSTYYADSVKGRFTISRDNAKNTVYLQMNSLKPEDTAVYYCAAYYRQFFGWYDYWGQGTQVTVSS",
    "polyreactivity (PSR sort gate)": "high polyreactivity"
  }
]

###

- Assay Procedure: yeast display, Sf9 membrane polyspecificity reagent, FACS + sequencing; frameworks hold sequencing errors
Recorded Metric: polyreactivity (PSR sort gate)

[
  {
    "Primary Sequence": "QVQLVESGGGLVQAGGSLRLSCAASGRTFLFYAMGWYRQAPGKERELVASITLNGGSTYYADSVKGRFTISRDNAKNTVYLQMNSLKPEETAVYYCNKRTRYQIGYGYWGQGTQVTVSS",
    "Experimental Result": "low polyreactivity"
  },
  {
    "Primary Sequence": "QVQLVESGGGLVQAGGSLRLSCAASGNTFRDYAMGWYRQAPGKERELVAAITSSGARTYYADSVKGRFTISRDNAKNTVYLQMISLKPEDTAVYYCAADWSGYYTYDYWGQGTQVTVSS",
    "Experimental Result": "low polyreactivity"
  }
]

###

- Assay Procedure: yeast display, Sf9 membrane polyspecificity reagent, FACS + sequencing; frameworks hold sequencing errors

[
  {
    "Primary Sequence": "QVQLVESGGGLVQAGGSLRLSCAASGRTYVPNAMGWYRQAPGKEREFVAAITSRGGRTFYADSVKGRFTISRDNAKNTVYLQMNSLKPDDTAVYYCAAYRPGFVYGRLDYWGQGTQVTVSS",
    "polyreactivity (PSR sort gate)": "high polyreactivity"
  },
  {
    "Primary Sequence": "QVQLVESGGGLVQVGGSLRLSCAASGGIFSGNAMGWSRPAPGKERELVAGITNGGRTTYADSVKGRFTISRDNAKNTVYLQMNSLKPEDTAVYYCNVYVSAGEEDEYWGQGTQVTVSS",
    "polyreactivity (PSR sort gate)": "low polyreactivity"
  },
  {
    "Primary Sequence": "QVQLVESGGGLVQAGGSHRLSCAASGRIFKIYAMGWYRQAPGKERELVAAISRGGRTYYADSVKGRFTISRDNAMYTFYLLLNSLTPEDTAVYYCNLYAPDTYGINGYWGQGTQVSVSS",
    "polyreactivity (PSR sort gate)": "high polyreactivity"
  },
  {
    "Primary Sequence": "QVQLVESAGGLVQAGGSRRLSCAASGRNFPFYAMGWYRQAPGKERELVATISSGDRTNYAVSVKGRFTISRDNAKNTVYLQMNSLKPEDTAVYYCAADFAVKYRKRVRRYSWGHGTQVTVSS",
    "polyreactivity (PSR sort gate)": "low polyreactivity"
  },
  {
    "Primary Sequence": "QVQLVESGGGLVQAGGSLRLSCAASGRILSKNAMGWYRQAPGKERELVAAIRGSTGITYYADSVKGRFTISRDNAKNTVYLQMNSLKPEDTAVYYCAAVVQGGFYWGQGTQVTVSS",
    "polyreactivity (PSR sort gate)": "high polyreactivity"
  },
  {
    "Primary Sequence": "QVQLVESGGGLVHAGGSLRLSCAASGRIFPSYAMGWYRQAPGKERELVAAISYSGASTYYADSVKGRFTISRDNAKNTVYLQMNSLKPEDTAVYYCATDHESVRVLVSSTSDYDYWGQGTQVTVSS",
    "polyreactivity (PSR sort gate)": "low polyreactivity"
  },
  {
    "Primary Sequence": "QVQLVESGGGLVQAGGSLRLICYASGSIFWVYAMGWYRQAPGKEWELVADIRYRDGSTHYADSVKGRFTISRDNAKNTVYLQMNSLKPEDTAVYYCAADDLPSTGYDYWGPGTQVTVSS",
    "polyreactivity (PSR sort gate)": "low polyreactivity"
  },
  {
    "Primary Sequence": "QVQLVESGGGLVQAGGSLRLSCAASGRTFRANAMGWYRQAPGKERELVAAISKRGGNTYYADSVKGRFTISRDNAKNTVYLQMNSLKPEDTAVYYCAADFIGRDYDYWGQGTQVTVSS",
    "polyreactivity (PSR sort gate)": "high polyreactivity"
  },
  {
    "Primary Sequence": "QVQLVESGGGLVQAGGSLRLSCAASGSIFYPYAMGWYRQAPGKEREFVAAITRSGGSTSYADSVKGRFTISRDNAKNTVYLHMNSLKPEDTAVYYCAAGYWYPDYDGFDYWGQGTQVTVSS",
    "polyreactivity (PSR sort gate)": "low polyreactivity"
  },
  {
    "Primary Sequence": "QVQLVESGGGLVQAGGSLRISCAASGSILGLYAMGWYRQAPGKERELVAAITYRGGRTDYADSVKGRFTISRDNAKNTVYLQMNSLKPEDTAVYYCAAGYLPRPRYSTSYLYYYWGQGTQVTVSS",
    "polyreactivity (PSR sort gate)": "high polyreactivity"
  },
  {
    "Primary Sequence": "QVQLVESGGGLVQAGGSLRLSCAASGSTSRYALGWYIQAPGNERELVAAITRSGGTTYYADSVKGRFTISRDNAKNTVYLQMNSLIPEDTAVYYCATSDRQVKYDYWGQGTQVTVSS",
    "polyreactivity (PSR sort gate)": "low polyreactivity"
  }
]
